Every entry's value here was drawn from ChEMBL document CHEMBL4418281.

Measured IC50 accompanies every entry in the list below.
- system: UniProtKB Q9HAU4
- Sequence (Q9HAU4 whole entry): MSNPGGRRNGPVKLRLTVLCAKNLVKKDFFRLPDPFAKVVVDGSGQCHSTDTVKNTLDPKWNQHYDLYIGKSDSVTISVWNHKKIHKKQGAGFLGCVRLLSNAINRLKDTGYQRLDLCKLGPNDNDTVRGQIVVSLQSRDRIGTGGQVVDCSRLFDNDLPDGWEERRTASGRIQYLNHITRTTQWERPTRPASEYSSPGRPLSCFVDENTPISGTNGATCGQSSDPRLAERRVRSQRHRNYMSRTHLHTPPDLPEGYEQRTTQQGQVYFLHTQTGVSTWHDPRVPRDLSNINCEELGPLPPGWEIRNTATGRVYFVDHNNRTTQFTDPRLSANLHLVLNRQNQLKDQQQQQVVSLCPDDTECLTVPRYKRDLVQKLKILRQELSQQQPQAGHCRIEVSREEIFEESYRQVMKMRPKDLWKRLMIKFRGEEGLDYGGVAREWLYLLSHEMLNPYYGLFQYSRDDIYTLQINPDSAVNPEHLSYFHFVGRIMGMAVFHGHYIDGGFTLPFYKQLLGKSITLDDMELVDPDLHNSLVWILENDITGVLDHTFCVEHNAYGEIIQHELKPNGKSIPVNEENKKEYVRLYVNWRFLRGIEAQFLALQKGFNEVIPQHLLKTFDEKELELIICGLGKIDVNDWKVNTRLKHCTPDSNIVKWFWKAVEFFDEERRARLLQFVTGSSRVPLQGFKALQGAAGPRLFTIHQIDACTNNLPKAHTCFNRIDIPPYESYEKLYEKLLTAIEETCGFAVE
- experiment summary: Inhibition of SMURF2 (unknown origin) in presence of E1/E2/Ub mix measured after 45 mins by europium-labeled streptavidin based TR-FRET assay
Your reply should be a number followed by the unit it is expressed in.

IC50 for COc1ccc2c(c1)CCCc1c(C(=O)Nc3c(C)n(C)n(Cc4ccc(F)cc4)c3=O)noc1-2 is 20 µM

Notebook: Cc1c(NC(=O)c2noc3c2CCCc2cc(OC(F)(F)F)ccc2-3)c(=O)n(Cc2ccc(F)cc2)n1C , IC50 read as 20 µM

molecule Cc1c(NC(=O)c2noc3c2CCCc2cc(CC(C)C)ccc2-3)c(=O)n(-c2ccccc2Cl)n1C , IC50 observed: 0.74 µM

Looking up Cc1c(NC(=O)c2noc3c2CCCc2cc(OC(F)(F)F)ccc2-3)c(=O)n(Cc2ccccc2F)n1C , I found its IC50 recorded as 20 µM

---

- system: E3 ubiquitin-protein ligase SMURF1 (Homo sapiens, UniProt Q9HCE7)
- Sequence (Q9HCE7 whole entry): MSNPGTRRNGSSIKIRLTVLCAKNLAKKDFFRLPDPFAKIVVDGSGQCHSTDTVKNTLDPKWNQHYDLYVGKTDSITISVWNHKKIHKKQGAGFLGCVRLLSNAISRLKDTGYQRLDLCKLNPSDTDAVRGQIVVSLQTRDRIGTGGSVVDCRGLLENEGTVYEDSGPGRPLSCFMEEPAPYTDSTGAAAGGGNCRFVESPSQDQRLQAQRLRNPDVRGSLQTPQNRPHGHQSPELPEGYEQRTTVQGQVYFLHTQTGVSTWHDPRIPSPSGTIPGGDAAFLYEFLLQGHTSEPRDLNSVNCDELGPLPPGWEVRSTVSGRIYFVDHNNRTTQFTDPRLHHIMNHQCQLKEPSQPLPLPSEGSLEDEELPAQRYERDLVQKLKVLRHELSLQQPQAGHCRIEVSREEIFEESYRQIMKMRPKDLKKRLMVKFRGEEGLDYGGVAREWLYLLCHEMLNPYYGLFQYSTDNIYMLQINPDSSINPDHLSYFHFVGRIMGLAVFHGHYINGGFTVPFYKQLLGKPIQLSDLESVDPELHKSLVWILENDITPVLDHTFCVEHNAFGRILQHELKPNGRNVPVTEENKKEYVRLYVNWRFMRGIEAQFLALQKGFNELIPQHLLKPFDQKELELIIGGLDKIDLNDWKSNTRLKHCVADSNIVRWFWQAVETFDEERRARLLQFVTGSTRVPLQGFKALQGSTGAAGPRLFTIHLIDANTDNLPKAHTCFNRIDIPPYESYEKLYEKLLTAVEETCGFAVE
- experiment summary: Inhibition of SMURF1 (unknown origin) in presence of E1/E2/Ub mix measured after 45 mins by europium-labeled streptavidin based TR-FRET assay
measured property: pIC50
pIC50 field: float, defined as -log10 of concentration (mol/L).

E3 ubiquitin-protein ligase SMURF1 (Homo sapiens, UniProt Q9HCE7) pIC50 of Cc1c(NC(=O)c2noc3c2CCCc2cc(CC(C)C)ccc2-3)c(=O)n(-c2ccccc2Cl)n1C is 7.65
